Cited source for all entries: paper PMC4336329

Measured target: human ether-à-go-go-related gene (hERG) potassium channel (human, UniProt Q12809);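 also: peak tail current of the secondary pulse compared with the same well before compound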
Sequence (Q12809 whole entry, looked up): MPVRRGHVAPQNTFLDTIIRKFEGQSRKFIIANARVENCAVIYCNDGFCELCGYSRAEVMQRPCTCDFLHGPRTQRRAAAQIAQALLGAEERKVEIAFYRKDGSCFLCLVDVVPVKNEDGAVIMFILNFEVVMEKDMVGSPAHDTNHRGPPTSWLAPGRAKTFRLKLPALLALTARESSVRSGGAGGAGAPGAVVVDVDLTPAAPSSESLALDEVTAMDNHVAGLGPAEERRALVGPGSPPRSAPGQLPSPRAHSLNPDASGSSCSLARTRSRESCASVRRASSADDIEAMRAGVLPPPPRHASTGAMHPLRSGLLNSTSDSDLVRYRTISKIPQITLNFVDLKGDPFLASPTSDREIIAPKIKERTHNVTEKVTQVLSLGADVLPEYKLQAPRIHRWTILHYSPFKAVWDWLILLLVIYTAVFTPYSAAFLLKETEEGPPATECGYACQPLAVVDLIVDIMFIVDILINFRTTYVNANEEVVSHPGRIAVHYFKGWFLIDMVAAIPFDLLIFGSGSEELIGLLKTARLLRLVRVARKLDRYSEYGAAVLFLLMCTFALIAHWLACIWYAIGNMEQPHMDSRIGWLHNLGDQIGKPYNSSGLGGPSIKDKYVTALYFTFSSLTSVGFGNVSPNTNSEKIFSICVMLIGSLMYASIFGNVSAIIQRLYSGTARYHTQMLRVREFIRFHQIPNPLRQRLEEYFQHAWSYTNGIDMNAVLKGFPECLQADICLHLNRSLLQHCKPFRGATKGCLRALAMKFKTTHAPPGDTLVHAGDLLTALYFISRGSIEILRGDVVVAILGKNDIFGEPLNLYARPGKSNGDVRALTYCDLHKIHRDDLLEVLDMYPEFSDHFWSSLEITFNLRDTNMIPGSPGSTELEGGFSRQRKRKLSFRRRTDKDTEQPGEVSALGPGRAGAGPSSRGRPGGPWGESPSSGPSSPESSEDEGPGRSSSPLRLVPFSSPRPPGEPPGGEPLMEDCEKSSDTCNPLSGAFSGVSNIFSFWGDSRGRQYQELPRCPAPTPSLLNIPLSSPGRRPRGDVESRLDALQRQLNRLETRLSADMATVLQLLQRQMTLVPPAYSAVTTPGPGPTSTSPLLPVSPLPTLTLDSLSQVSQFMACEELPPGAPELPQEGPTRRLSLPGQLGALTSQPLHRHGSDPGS
Test: primary screen, population patch clamp on CHO cells stably expressing hERG; higher = less effect of the substance
In all, about 310,000 compounds went through this assay and about 14,000 (4.5%) showed an effect of 50% or more. The effect is printed as a negative number. The sample holds strong results, similar compounds and a random draw of the others, so the mix is not that of the screen.
For each of the compounds below, state its hERG current change (%, negative = inhibition) at 10uM.
Answers are plain numbers, in %.

Some compounds with known hERG current change (%, negative = inhibition) at 10uM results, for comparison:
O=C(Cn1cc(C(=O)C2CC2)c2ccccc21)Nc1ccc(F)cc1
-20.5
O=C(CCCc1nc(-c2ccccc2Cl)no1)NCc1cccnc1
-2.1
Cc1c(NC(=O)C(C)OC(=O)c2cccs2)c(=O)n(-c2ccccc2)n1C (centres unmarked)
3.46
Cn1c(=O)cc(OCC(=O)NCCCN2CCN(c3ccccc3F)CC2)c2ccccc21
-45.4

Quick batch: hERG current change (%, negative = inhibition) at 10uM for everything below.
1. CCC(CC)c1nnc(NC(=O)C2CCN(C(=O)c3ccco3)CC2)s1
2. CCn1c(=O)cc(SCC(=O)N2CCN(c3ccccc3F)CC2)c2ccccc21
3. Cc1ccccc1OCC(O)CN1C(=O)c2ccccc2C1=O (centres unmarked)
4. Cc1cc(C)c2nc(N3CCC(C(=O)NCCCN4CCCCC4)CC3)sc2c1

1. 20.1
2. -21.7
3. 4.28
4. -37.2

Quick batch: hERG current change (%, negative = inhibition) at 10uM for everything below.
1. Cc1ccc2c(c1)Sc1ccccc1CC2=O
2. O=[N+]([O-])c1cc(/C=N\O)ccc1Oc1ccc(F)cc1
3. CCn1c(=O)cc(SCC(=O)NCCN2CCN(Cc3ccccc3)CC2)c2ccccc21
4. CN(CCO)S(=O)(=O)c1ccc2c(c1)C(=NN)c1cc(S(=O)(=O)N(C)CCO)ccc1-2
5. COc1cccc(C(c2c(C)[nH]n(-c3ccccc3)c2=O)c2c(C)[nH]n(-c3ccccc3)c2=O)c1O

1: -20.9; 2: -72.1; 3: -49.4; 4: 9.76; 5: -4.28

Quick batch: hERG current change (%, negative = inhibition) at 10uM for everything below.
1. CN(C)CCOc1ccc2c(c1)Sc1ccccc1CC2=O.Cl
2. O=C1Cc2ccccc2Sc2ccccc21
3. c1ccc(-c2ccccc2OCCN2CCCC2)cc1
4. C=CCc1ccccc1OCC(O)CN1C(=O)c2ccccc2C1=O (centres unmarked)
5. Cc1ccc2nc(/C(C#N)=C\c3ccc(Oc4ccc(C(F)(F)F)cc4[N+](=O)[O-])cc3)[nH]c2c1
6. Cc1ccccc1N(C(=O)CNC(=O)c1ccco1)C(C(=O)NC1CCCCC1)c1cccnc1 (centres unmarked)

-64.8
1.13
-26.6
-27.2
20.8
14.3

###

Measured target: human ether-à-go-go-related gene (hERG) potassium channel (human, UniProt Q12809);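 also: peak tail current of the secondary pulse compared with the same well before compound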
Test: primary screen, population patch clamp on CHO cells stably expressing hERG; higher = less effect of the substance
Description: Briefly, Chinese hamster ovary (CHO) cells stably expressing the hERG channel were dislodged from tissue culture flasks and dispensed into PPC plates. […] During the recording, background leak currents were estimated by a 100 ms step to -80 mV from an initial holding potential of -70 mV and subtracted from the subsequent current measurement. The campaign was conducted in two phases using slight differences in recording protocol. […]
About 14,000 (4.5%) of roughly 310,000 compounds showed an effect of 50% or more. The effect is printed as a negative number. Many of the other results were omitted from the sample, so strong results are more common in it than they were.
Observable: hERG current change (%, negative = inhibition) at 10uM (%)
Answers are plain numbers, in %.

Some molecules with known hERG current change (%, negative = inhibition) at 10uM results, for comparison:
CCN(CC)CC(=O)N1c2ccccc2Sc2ccccc21
1.42
CCC(=O)c1ccc2c(c1)N(CCCN(C)C)c1ccccc1S2.Cl
-63.5
CN(C)CCCNC(=O)N1c2ccccc2Sc2ccccc21
1.39
CCN(CC)CCCCN1c2ccccc2Sc2ccccc21.Cl
-61.7
COc1ccc(C2=NOC(C(=O)N3CCOCC3)C2)cc1OC (stereo not drawn)
11.6

Return the recorded hERG current change (%, negative = inhibition) at 10uM value; entry: `CN(C)CCCN1c2ccccc2Sc2ccccc21.Cl`
-28.1
